Biological target: PAR2 (HT-29 cells, SLIGKV activation) (Homo sapiens)
Construct: host or cells: HT-29 cells
Sequence (P55085 26-397): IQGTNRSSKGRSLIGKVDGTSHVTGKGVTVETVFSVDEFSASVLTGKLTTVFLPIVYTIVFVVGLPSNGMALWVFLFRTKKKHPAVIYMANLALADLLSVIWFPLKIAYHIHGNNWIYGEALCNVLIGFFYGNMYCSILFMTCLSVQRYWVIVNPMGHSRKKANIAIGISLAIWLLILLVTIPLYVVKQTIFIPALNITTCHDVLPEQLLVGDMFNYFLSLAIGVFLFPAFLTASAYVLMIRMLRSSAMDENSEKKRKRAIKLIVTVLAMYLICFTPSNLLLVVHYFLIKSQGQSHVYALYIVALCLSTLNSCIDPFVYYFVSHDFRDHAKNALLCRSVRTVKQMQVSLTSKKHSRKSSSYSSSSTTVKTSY
Test: Ca FLIPR TETRA assay, ANTAGONIST mode, stimulation with 8 μM SLIGKV
Assay type: cell-based
Conditions: HT-29 cells, antagonist mode, stimulation with 8 μM SLIGKV
pIC50: −log10 of the molar value.
Each item that follows carries a reported pIC50.

| compound | system.under.test | pIC50 |
| --- | --- | --- |
| CC(C)(C)c1cc(-c2ccc(F)cc2)nn2cc(C(=O)N3CCN(C(=O)C4CC(C(=O)O)C4)CC3(C)C)nc12 (centres unmarked) [Compound I-492] | PAR2 (HT-29 cells, SLIGKV activation) (Homo sapiens) | 8.40 |
| Cc1cc(-c2cc(C(C)C)c3nc(C(=O)N4CCN(C)C(=O)C4(C)C)cn3n2)ccc1F [Compound I-440] | PAR2 (HT-29 cells, SLIGKV activation) (Homo sapiens) | 8.09 |
| CC(C)c1cc(-c2cc(F)cc(F)c2)nn2cc(C(=O)N3CCN(C(=O)C(C)(C)O)CC3(C)C)nc12 [Compound I-224] | PAR2 (HT-29 cells, SLIGKV activation) (Homo sapiens) | 6.96 |
| Cc1ccc(-c2cc(C(C)(C)C)c3nc(C(=O)N4CCN(c5c[nH]c(C)n5)C(=O)C4(C)C)cn3n2)cc1 [Compound I-368] | PAR2 (HT-29 cells, SLIGKV activation) (Homo sapiens) | 8.28 |
| CC(C)[C@@H](O)C(=O)N1CCN(C(=O)c2cn3nc(-c4ccc(F)cc4)cc(N4C[C@@H](C)O[C@@H](C)C4)c3n2)C(C)(C)C1 [Compound I-186] | PAR2 (HT-29 cells, SLIGKV activation) (Homo sapiens) | 7.56 |
| CC(C)(C)c1cc(-c2ccc(F)cc2)nn2cc(C(=O)N3CCN(C(=O)c4ccn[nH]4)CC3(C)C)nc12 [Compound I-201] | PAR2 (HT-29 cells, SLIGKV activation) (Homo sapiens) | 9.15 |
| CC(C)c1cc(-c2cccc(F)c2)nn2cc(C(=O)N3CCN(C(=O)C(C)(C)O)CC3(C)C)nc12 [Compound I-250] | PAR2 (HT-29 cells, SLIGKV activation) (Homo sapiens) | 7.24 |
| C[C@@H]1CN(c2cc(-c3ccc(F)cc3)nn3cc(C(=O)N4CCNC(=O)C4(C)C)nc23)C[C@H](C)O1 [Compound I-182] | PAR2 (HT-29 cells, SLIGKV activation) (Homo sapiens) | 7.76 |
| CC(C)c1cc(-c2ccc(C(F)F)cc2)nn2cc(C(=O)N3CCN(C(=O)c4ccn[nH]4)CC3(C)C)nc12 [Compound I-293] | PAR2 (HT-29 cells, SLIGKV activation) (Homo sapiens) | 8.18 |
| CC(C)c1cc(-c2ccc(C(F)(F)F)cc2)nn2cc(C(=O)N3CCN(C(=O)c4ccncn4)CC3(C)C)nc12 [Compound I-247] | PAR2 (HT-29 cells, SLIGKV activation) (Homo sapiens) | 8.37 |
| Cc1cc(-c2cc(C(C)(C)C)c3nc(C(=O)N4CCNC(=O)C4(C)C)cn3n2)ccc1F [Compound I-329] | PAR2 (HT-29 cells, SLIGKV activation) (Homo sapiens) | 8.23 |
| CC(C)(C)c1cc(-c2ccc(Cl)cc2)nn2cc(C(=O)N3CCN(C(=O)c4ncccn4)CC3(C)C)nc12 [Compound I-445] | PAR2 (HT-29 cells, SLIGKV activation) (Homo sapiens) | 9.40 |
| Cc1cc(-c2cc(C(C)C)c3nc(C(=O)N4CN(Cc5ccccc5)C(=O)C4(C)C)cn3n2)ccc1F [Compound I-442] | PAR2 (HT-29 cells, SLIGKV activation) (Homo sapiens) | 6.96 |
| CC(C)(C)c1cc(-c2ccc(F)cc2)nn2cc(C(=O)N3CCOC(=O)C3(C)C)nc12 [Compound I-510] | PAR2 (HT-29 cells, SLIGKV activation) (Homo sapiens) | 8.17 |

---

Target: PAR2 (HT-29 cells, SLIGKV activation) (Homo sapiens, UniProt P55085)
Construct: host or cells: HT-29 cells
Experiment: Ca FLIPR TETRA assay, ANTAGONIST mode, stimulation with 8 μM SLIGKV
Format: cell-based
Conditions: HT-29 cells, antagonist mode, stimulation with 8 μM SLIGKV
Method: Example 60: Protocol for Testing PAR2 Compounds in ANTAGONIST Mode Using the Ca FLIPR^TETRA Assay (384 Well) […] A first read was performed to determine whether the test compounds on their own can activate Ca2+ responses. The cells were incubated with the compounds for 30 min at r. t. and then read in ANTAGONIST mode in the same plate by stimulating with 6.2 uL of a fixed concentration of the activator: final concentrations: 8 μM SLIGKV, 1 U/mL Thrombin, 3.1 U/mL trypsin, or 0.6 μM UTP.
Exam item: assign Y to entries whose IC50 is below 2 nM and N to entries at or above 2 nM. Note that a value of exactly 2 nM receives N.

| compound | assigned.class |
| --- | --- |
| Cc1ncc(C(=O)N2CCN(C(=O)c3cn4nc(-c5ccc(C)c(F)c5)cc(C(C)(C)C)c4n3)C(C)(C)C2)[nH]1 [Compound I-431] | Y |
| C[C@H]1C(=O)NCCN1C(=O)c1cn2nc(-c3ccc(F)cc3)cc(C(C)(C)C)c2n1 [Compound I-547] | N |
| CC(C)c1cc(-c2ccc(F)c(F)c2)nn2cc(C(=O)N3CCN(C(=O)c4ccn[nH]4)CC3(C)C)nc12 [Compound I-258] | Y |
| CC(C)c1cc(-c2ccc(F)c(C(F)(F)F)c2)nn2cc(C(=O)N3CCN(C(=O)C(C)(C)O)CC3(C)C)nc12 [Compound I-222] | N |
| CN1CCN(C(=O)c2cn3nc(-c4ccc(F)cc4)cc(C(C)(C)C)c3n2)C(C)(C)C1=O [Compound I-188] | Y |
| Cc1ccc(-c2cc(C(C)(C)C)c3nc(C(=O)N4CCN(C(=O)c5ncccn5)CC4(C)C)cn3n2)cc1 [Compound I-392] | Y |
| Cc1ccc(-c2cc(C(C)(C)C)c3nc(C(=O)N4CCN(C(=O)c5nc(C)n[nH]5)CC4(C)C)cn3n2)cc1 [Compound I-397] | Y |

---

target: PAR2 (HT-29 cells, trypsin activation) (Homo sapiens, UniProt P55085); construct: host or cells: HT-29 cells; assay: Ca FLIPR TETRA assay, ANTAGONIST mode, stimulation with 3.1 U/mL trypsin; type: cell-based; details: HT-29 cells, antagonist mode, 3.1 U/mL trypsin
pIC50: −log10 of the molar value.
Mark satisfied for reported pIC50 of 8 or greater; mark not satisfied for anything smaller.

| compound.structure.string | assigned.class |
| --- | --- |
| CC(C)(C)c1cc(-c2ccc(F)cc2)nn2cc(C(=O)N3CCN(C(=O)[C@H]4CC[C@@](C)(C(=O)O)CC4)CC3(C)C)nc12 | satisfied |
| CC1(C)C(=O)NCCN1C(=O)c1cn2nc(-c3ccc(F)cc3)cc(-c3ccncc3)c2n1 | not satisfied |
| CC(C)(C)c1cc(-c2ccc(F)cc2)nn2cc(C(=O)N3CCN(C(=O)[C@H]4C[C@H](C(=O)O)C4)CC3(C)C)nc12 | not satisfied |
| CC(C)(CC(=O)N1CCN(C(=O)c2cn3nc(-c4ccc(F)cc4)cc(C(C)(C)C)c3n2)C(C)(C)C1)C(=O)O | satisfied |
| CC(C)(C)c1cc(-c2ccc(F)cc2)nn2cc(C(=O)N3CCN(C(=O)C45CC(C(=O)O)(C4)C5)CC3(C)C)nc12 | not satisfied |

---

Parameter pIC50: see the listing below.
Target: PAR2 (HT-29 cells, SLIGKV activation) (Homo sapiens)
Construct: host or cells: HT-29 cells
Sequence (P55085 26-397): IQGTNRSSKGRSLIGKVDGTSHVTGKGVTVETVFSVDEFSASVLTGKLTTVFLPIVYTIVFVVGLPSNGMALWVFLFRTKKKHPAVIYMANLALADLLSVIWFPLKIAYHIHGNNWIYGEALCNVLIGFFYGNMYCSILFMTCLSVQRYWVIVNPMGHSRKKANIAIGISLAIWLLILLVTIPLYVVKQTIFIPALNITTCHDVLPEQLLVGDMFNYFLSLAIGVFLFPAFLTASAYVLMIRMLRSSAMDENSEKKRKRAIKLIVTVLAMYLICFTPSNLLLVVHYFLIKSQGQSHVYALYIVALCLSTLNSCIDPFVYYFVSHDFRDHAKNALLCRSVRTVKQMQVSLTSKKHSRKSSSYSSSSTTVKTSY
Assay: Ca FLIPR TETRA assay, ANTAGONIST mode, stimulation with 8 μM SLIGKV
Assay type: cell-based
Conditions: HT-29 cells, antagonist mode, stimulation with 8 μM SLIGKV
pIC50: −log10 of the molar value.

| compound | system.under.test | pIC50 |
| --- | --- | --- |
| Cc1ccc(-c2cc(C(C)C)c3nc(C(=O)N4CCNC(=O)C4(C)C)cn3n2)cc1F [Compound I-301] | PAR2 (HT-29 cells, SLIGKV activation) (Homo sapiens) | 8.52 |
| CC(C)c1cc(-c2ccc(F)c(Cl)c2)nn2cc(C(=O)N3CCN(C(=O)[C@H]4C[C@H](C(=O)O)C4)CC3(C)C)nc12 [Compound I-501] | PAR2 (HT-29 cells, SLIGKV activation) (Homo sapiens) | 7.29 |
| CC(C)c1cc(-c2ccc(C(F)(F)F)cc2)nn2cc(C(=O)N3CCN(C(=O)c4ccccn4)CC3(C)C)nc12 [Compound I-281] | PAR2 (HT-29 cells, SLIGKV activation) (Homo sapiens) | 8.60 |
| CC(C)(CO)c1cc(-c2ccc(F)cc2)nn2cc(C(=O)N3CCNC(=O)C3(C)C)nc12 [Compound I-189] | PAR2 (HT-29 cells, SLIGKV activation) (Homo sapiens) | 6.40 |
